Target: Tyrosine-protein kinase Blk (Homo sapiens, UniProt P51451)
Sequence (P51451 whole entry): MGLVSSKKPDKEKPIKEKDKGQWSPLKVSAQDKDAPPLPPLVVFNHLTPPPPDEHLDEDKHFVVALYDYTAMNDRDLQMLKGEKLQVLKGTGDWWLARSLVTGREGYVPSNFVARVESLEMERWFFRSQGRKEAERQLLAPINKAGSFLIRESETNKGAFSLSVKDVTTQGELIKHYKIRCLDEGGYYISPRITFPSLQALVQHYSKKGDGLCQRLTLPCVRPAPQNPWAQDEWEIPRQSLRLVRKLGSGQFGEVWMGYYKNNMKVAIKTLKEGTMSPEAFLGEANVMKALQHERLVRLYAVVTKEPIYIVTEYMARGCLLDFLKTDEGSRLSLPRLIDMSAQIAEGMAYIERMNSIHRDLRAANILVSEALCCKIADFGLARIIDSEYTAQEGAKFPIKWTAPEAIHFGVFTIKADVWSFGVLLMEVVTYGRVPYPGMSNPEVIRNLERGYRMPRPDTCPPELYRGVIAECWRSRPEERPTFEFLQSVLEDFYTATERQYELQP
Experiment: Inhibition of recombinant BLK after 1 hr by scintillation counter analysis in presence of gamma-[33P]ATP
Recorded metric: Ki

CC(C)(C)Nc1c(Nc2ccnc(Nc3ccc(-c4ccncc4)cc3)n2)c(=O)c1=O ... > 1400 nM

====

Target: Dual specificity tyrosine-phosphorylation-regulated kinase 1A (Homo sapiens, UniProt Q13627)
Test: Inhibition of recombinant DYRK1A after 1 hr by scintillation counter analysis in presence of gamma-[33P]ATP
pKi: −log10 of the molar value.
Recorded metric: pKi

CC(C)(C)Nc1c(Nc2ccnc(Nc3ccc(-c4ccncc4)cc3)n2)c(=O)c1=O ... < 5.17

====

Biological target: Casein kinase I isoform delta (Homo sapiens)
Sequence (P48730 whole entry, canonical isoform): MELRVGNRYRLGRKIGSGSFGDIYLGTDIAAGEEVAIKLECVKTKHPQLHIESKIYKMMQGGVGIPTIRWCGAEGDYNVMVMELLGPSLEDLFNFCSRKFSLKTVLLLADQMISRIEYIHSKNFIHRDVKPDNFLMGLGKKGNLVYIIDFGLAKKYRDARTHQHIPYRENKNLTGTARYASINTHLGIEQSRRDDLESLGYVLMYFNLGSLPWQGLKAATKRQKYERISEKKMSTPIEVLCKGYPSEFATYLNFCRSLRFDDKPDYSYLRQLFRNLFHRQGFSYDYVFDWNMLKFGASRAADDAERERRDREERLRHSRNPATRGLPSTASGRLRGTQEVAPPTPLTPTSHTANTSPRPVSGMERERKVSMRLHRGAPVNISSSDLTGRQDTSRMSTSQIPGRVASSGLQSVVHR
Assay: Inhibition of recombinant CK1delta after 1 hr by scintillation counter analysis in presence of gamma-[33P]ATP
pKi: −log10 of the molar value.
Recorded metric: pKi

CC(C)(C)Nc1c(Nc2ccnc(Nc3ccc(-c4ccncc4)cc3)n2)c(=O)c1=O ... < 5.11

====

Target: Serine/threonine-protein kinase PLK1 (Homo sapiens, UniProt P53350)
Sequence (P53350 whole entry): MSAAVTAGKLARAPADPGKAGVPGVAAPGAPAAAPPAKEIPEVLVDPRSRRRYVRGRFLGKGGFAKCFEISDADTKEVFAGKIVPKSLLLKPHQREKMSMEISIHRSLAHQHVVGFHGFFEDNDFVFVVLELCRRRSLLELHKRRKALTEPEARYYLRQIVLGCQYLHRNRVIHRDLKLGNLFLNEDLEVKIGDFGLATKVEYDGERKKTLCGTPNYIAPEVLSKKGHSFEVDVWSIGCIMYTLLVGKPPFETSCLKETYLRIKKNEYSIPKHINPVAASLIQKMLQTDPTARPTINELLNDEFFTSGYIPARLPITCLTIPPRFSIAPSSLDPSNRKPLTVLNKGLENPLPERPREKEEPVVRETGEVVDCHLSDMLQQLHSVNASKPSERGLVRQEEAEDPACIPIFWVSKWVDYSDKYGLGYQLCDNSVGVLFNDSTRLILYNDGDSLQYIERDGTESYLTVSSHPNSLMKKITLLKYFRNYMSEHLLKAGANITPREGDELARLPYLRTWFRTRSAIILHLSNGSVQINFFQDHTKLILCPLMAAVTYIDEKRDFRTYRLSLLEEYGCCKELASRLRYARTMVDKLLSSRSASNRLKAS
Assay: Inhibition of recombinant GST-tagged PLK1 using biotin-ahx-AKMETTFYDDALNASFLPSEKKK-amide as substrate after 30 mins by scintillation counting analysis in presence of gamma-[33P]ATP
Recorded metric: Ki

CC(C)(C)Nc1c(Nc2ccnc(Nc3ccc(-c4ccncc4)cc3)n2)c(=O)c1=O ... 5 nM
CC(C)(C)Nc1c(Nc2ccnc(Nc3ccc(-c4ccccc4)cc3)n2)c(=O)c1=O ... 14 nM
CC(C)(C)Nc1c(Nc2ccnc(Nc3ccc(-c4ccccn4)cc3)n2)c(=O)c1=O ... 82 nM
CCC(C)(C)Nc1c(Nc2ccnc(Nc3ccc(-c4ccccc4)cc3)n2)c(=O)c1=O ... 13 nM
C[C@@H](Nc1c(Nc2ccnc(Nc3ccc4c(c3)OCO4)n2)c(=O)c1=O)C(C)(C)C ... 165 nM
COc1ccc(Nc2nccc(Nc3c(N[C@H](C)C(C)(C)C)c(=O)c3=O)n2)cc1 ... 141 nM
COc1ccc(Nc2nccc(Nc3c(N[C@H](C)C(C)(C)C)c(=O)c3=O)n2)c(OC)c1 ... 771 nM
CC(C)(C)Nc1c(Nc2ccnc(Nc3ccc(-c4cn[nH]c4)cc3)n2)c(=O)c1=O ... 10 nM
CC(C)(C)Nc1c(Nc2ccnc(Nc3ccc4c(c3)Cc3ccccc3-4)n2)c(=O)c1=O ... 4 nM

====

Target: Serine/threonine-protein kinase 3 (Homo sapiens)
Experiment: Inhibition of recombinant MST2 after 1 hr by scintillation counter analysis in presence of gamma-[33P]ATP
Recorded metric: Ki (µM)

CC(C)(C)Nc1c(Nc2ccnc(Nc3ccc(-c4ccncc4)cc3)n2)c(=O)c1=O ... 2.9

====

Target: Glycogen synthase kinase-3 beta (Homo sapiens)
Sequence (P49841 whole entry): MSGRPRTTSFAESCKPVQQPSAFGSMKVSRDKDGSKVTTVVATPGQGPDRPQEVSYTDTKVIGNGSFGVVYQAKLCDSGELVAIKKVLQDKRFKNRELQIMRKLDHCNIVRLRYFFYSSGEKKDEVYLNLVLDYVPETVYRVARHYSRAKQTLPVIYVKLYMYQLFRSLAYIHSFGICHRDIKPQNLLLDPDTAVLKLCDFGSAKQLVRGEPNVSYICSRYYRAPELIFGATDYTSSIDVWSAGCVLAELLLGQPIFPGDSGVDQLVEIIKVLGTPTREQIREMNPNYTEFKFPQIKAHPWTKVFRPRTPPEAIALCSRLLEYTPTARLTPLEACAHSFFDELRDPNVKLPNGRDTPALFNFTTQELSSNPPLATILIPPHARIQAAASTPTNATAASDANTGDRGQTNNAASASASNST
Experiment: Inhibition of recombinant GSK3B after 1 hr by scintillation counter analysis in presence of gamma-[33P]ATP
pKi: −log10 of the molar value.
Recorded metric: pKi

CC(C)(C)Nc1c(Nc2ccnc(Nc3ccc(-c4ccncc4)cc3)n2)c(=O)c1=O ... 6.99

====

Target: Ephrin type-A receptor 2 (Homo sapiens)
Sequence (P29317 whole entry): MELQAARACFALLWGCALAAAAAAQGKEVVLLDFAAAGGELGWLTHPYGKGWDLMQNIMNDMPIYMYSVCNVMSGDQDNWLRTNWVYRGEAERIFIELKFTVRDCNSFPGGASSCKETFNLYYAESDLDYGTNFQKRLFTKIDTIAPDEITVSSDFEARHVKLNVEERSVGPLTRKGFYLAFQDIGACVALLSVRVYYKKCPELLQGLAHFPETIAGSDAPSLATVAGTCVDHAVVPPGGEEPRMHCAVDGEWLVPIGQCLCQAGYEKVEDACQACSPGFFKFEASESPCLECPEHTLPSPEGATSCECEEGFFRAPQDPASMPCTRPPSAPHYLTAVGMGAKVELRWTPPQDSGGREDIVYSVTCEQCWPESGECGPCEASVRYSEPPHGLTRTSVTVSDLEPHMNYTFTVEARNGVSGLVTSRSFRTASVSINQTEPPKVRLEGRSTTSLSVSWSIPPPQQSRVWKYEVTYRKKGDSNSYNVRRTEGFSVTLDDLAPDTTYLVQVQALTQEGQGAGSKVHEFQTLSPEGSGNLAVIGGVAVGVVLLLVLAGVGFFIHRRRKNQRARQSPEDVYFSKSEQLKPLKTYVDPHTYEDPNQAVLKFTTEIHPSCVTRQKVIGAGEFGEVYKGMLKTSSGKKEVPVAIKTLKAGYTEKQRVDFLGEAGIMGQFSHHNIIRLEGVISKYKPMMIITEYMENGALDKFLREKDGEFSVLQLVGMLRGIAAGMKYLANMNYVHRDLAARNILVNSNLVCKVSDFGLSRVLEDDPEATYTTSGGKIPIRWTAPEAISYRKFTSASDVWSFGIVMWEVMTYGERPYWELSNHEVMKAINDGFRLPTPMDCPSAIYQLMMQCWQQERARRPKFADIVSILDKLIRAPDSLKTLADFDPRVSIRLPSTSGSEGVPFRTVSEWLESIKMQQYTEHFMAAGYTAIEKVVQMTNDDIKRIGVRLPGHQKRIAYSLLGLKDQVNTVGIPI
Assay: Inhibition of recombinant EPHA2 after 1 hr by scintillation counter analysis in presence of gamma-[33P]ATP
Recorded metric: Ki

CC(C)(C)Nc1c(Nc2ccnc(Nc3ccc(-c4ccncc4)cc3)n2)c(=O)c1=O ... > 2800 nM

====

Molecular target: Serine/threonine-protein kinase PAK 1 (Homo sapiens)
Sequence (Q13153 whole entry): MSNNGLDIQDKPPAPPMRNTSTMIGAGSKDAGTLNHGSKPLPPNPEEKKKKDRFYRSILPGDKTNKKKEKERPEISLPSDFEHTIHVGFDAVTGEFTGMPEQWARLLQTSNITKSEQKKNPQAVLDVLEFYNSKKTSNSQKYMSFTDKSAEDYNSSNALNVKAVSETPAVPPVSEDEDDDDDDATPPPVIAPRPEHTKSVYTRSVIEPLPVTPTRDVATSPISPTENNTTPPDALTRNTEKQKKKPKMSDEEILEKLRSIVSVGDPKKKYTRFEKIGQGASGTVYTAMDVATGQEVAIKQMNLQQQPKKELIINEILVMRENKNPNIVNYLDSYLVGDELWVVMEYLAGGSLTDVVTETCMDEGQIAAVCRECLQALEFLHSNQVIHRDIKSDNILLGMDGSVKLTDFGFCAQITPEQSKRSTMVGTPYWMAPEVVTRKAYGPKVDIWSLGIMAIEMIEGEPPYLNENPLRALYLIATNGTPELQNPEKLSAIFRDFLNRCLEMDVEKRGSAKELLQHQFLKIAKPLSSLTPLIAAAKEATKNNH
Test: Inhibition of recombinant PAK1 after 1 hr by scintillation counter analysis in presence of gamma-[33P]ATP
Recorded metric: Ki

CC(C)(C)Nc1c(Nc2ccnc(Nc3ccc(-c4ccncc4)cc3)n2)c(=O)c1=O ... > 9.7 µM

====

Molecular target: Receptor-type tyrosine-protein kinase FLT3 (Homo sapiens, UniProt P36888)
Experiment: Inhibition of recombinant FLT3 after 1 hr by scintillation counter analysis in presence of gamma-[33P]ATP
Recorded metric: Ki

CC(C)(C)Nc1c(Nc2ccnc(Nc3ccc(-c4ccncc4)cc3)n2)c(=O)c1=O ... 494 nM

====

Target: Serine/threonine-protein kinase PLK1 (Homo sapiens)
Test: Inhibition of recombinant GST-tagged PLK1 using biotin-ahx-AKMETTFYDDALNASFLPSEKKK-amide as substrate after 30 mins by scintillation counting analysis in presence of gamma-[33P]ATP
pKi: −log10 of the molar value.
Mark label 0 for pKi values under 6, and label 1 for everything at or above.

CC(C)(C)Nc1c(Nc2ccnc(Nc3ccc4[nH]ncc4c3)n2)c(=O)c1=O ... label 1
C[C@@H](Nc1c(Nc2ccnc(Nc3cccc(-c4ccccc4)c3)n2)c(=O)c1=O)C(C)(C)C ... label 1
C[C@@H](Nc1c(Nc2ccnc(Nc3cccnc3)n2)c(=O)c1=O)C(C)(C)C ... label 0
C[C@H](Nc1c(Nc2ccnc(Nc3ccc(-c4ccccc4)cc3)n2)c(=O)c1=O)C(C)(C)C ... label 1
CC(Nc1c(Nc2ccnc(Nc3ccc(-c4ccccc4)cc3)n2)c(=O)c1=O)c1ccccc1 (centres undefined) ... label 0
C[C@@H](Nc1c(Nc2ccnc(Nc3ccc(F)cc3)n2)c(=O)c1=O)C(C)(C)C ... label 1
CC(C)(C)CNc1c(Nc2ccnc(Nc3ccc(-c4ccccc4)cc3)n2)c(=O)c1=O ... label 0
CC(C)(C)Nc1c(Nc2ccnc(Nc3ccc(N4CCOCC4)cc3)n2)c(=O)c1=O ... label 1

====

Target: Serine/threonine-protein kinase pim-2 (Homo sapiens, UniProt Q9P1W9)
Sequence (Q9P1W9 whole entry): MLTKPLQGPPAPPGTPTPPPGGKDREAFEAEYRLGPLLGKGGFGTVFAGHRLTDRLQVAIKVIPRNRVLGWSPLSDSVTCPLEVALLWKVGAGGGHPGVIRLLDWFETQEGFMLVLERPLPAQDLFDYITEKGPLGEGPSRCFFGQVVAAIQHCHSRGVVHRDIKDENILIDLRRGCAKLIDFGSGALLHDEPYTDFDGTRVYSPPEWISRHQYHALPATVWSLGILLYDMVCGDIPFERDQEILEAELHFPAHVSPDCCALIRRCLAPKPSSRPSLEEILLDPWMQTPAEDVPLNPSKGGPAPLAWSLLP
Assay: Inhibition of recombinant PIM2 after 1 hr by scintillation counter analysis in presence of gamma-[33P]ATP
pKi: −log10 of the molar value.
Recorded metric: pKi

CC(C)(C)Nc1c(Nc2ccnc(Nc3ccc(-c4ccncc4)cc3)n2)c(=O)c1=O ... < 5.85

====

Target: RAC-beta serine/threonine-protein kinase (Homo sapiens, UniProt P31751)
Sequence (P31751 whole entry): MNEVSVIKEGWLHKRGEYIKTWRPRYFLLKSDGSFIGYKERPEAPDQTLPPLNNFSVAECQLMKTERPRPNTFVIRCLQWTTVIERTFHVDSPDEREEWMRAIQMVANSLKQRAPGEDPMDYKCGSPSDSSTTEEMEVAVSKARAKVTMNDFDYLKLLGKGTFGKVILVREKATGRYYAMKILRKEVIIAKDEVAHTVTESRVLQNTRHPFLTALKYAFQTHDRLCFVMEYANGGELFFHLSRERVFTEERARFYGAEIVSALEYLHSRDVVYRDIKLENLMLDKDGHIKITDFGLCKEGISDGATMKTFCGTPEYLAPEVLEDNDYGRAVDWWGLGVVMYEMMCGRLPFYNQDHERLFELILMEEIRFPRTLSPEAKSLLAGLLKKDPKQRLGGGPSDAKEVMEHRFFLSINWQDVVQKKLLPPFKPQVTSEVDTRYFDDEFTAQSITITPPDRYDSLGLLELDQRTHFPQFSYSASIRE
Assay: Inhibition of recombinant AKT2 after 1 hr by scintillation counter analysis in presence of gamma-[33P]ATP
Recorded metric: Ki

CC(C)(C)Nc1c(Nc2ccnc(Nc3ccc(-c4ccncc4)cc3)n2)c(=O)c1=O ... > 8 µM

====

Biological target: Protein kinase C delta type (Homo sapiens, UniProt Q05655)
Sequence (Q05655 whole entry): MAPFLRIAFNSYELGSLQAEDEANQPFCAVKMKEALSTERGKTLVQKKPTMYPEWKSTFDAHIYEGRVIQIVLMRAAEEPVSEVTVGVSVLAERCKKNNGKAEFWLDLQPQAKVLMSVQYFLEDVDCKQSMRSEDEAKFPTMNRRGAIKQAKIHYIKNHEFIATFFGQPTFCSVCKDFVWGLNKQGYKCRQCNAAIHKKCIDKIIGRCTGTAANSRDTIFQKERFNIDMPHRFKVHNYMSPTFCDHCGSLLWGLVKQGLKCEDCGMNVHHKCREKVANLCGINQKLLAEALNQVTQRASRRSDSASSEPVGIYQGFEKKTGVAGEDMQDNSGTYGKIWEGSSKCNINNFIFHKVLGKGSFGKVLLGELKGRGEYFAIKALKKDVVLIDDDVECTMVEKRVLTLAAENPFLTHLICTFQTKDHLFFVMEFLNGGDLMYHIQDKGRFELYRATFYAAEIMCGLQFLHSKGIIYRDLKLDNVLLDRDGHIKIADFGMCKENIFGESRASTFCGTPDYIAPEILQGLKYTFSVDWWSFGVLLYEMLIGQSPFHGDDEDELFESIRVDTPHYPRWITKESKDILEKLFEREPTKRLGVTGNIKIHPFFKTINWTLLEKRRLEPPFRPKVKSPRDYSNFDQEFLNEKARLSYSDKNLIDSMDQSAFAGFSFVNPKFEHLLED
Experiment: Inhibition of recombinant PKCdelta after 1 hr by scintillation counter analysis in presence of gamma-[33P]ATP
Recorded metric: Ki (nM)

CC(C)(C)Nc1c(Nc2ccnc(Nc3ccc(-c4ccncc4)cc3)n2)c(=O)c1=O ... 7.9

====

Assay: Cmax in mouse at 50 mg/kg, po measured at 1 hr
Assay type: ADME, organism-based
Set-up: dose 50 mg/kg, route oral
Settings: in vivo
Recorded metric: Cmax (µM)

CC(C)(C)Nc1c(Nc2ccnc(Nc3ccc(-c4ccncc4)cc3)n2)c(=O)c1=O ... 5.4

====

Target: Tyrosine-protein kinase ITK/TSK (Homo sapiens, UniProt Q08881)
Sequence (Q08881 whole entry): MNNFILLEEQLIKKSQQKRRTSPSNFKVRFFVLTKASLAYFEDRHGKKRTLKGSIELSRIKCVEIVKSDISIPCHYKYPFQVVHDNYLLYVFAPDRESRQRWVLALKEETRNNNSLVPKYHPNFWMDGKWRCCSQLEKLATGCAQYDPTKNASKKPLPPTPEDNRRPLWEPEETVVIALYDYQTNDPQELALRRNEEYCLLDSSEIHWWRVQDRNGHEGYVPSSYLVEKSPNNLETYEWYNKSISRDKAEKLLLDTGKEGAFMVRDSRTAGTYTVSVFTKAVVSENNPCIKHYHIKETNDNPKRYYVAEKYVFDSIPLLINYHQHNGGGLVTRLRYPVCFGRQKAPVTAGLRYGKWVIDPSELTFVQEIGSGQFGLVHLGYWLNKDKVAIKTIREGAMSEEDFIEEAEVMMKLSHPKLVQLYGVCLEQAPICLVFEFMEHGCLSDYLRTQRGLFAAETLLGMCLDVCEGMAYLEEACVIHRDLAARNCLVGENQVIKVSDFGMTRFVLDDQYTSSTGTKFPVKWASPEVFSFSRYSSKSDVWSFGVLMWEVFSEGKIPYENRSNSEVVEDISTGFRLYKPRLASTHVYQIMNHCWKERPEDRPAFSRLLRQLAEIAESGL
Assay: Inhibition of recombinant ITK after 1 hr by scintillation counter analysis in presence of gamma-[33P]ATP
Recorded metric: Ki

CC(C)(C)Nc1c(Nc2ccnc(Nc3ccc(-c4ccncc4)cc3)n2)c(=O)c1=O ... > 1.5 µM

====

Target: Serine/threonine-protein kinase PLK1 (Homo sapiens)
Assay: Inhibition of recombinant GST-tagged PLK1 using biotin-ahx-AKMETTFYDDALNASFLPSEKKK-amide as substrate after 30 mins by scintillation counting analysis in presence of gamma-[33P]ATP
pKi: −log10 of the molar value.
Recorded metric: pKi

C[C@@H](Nc1c(Nc2ccnc(Nc3ccc(Br)cc3)n2)c(=O)c1=O)C(C)(C)C ... 6.45
C[C@@H](Nc1c(Nc2ccnc(Nc3ccccn3)n2)c(=O)c1=O)C(C)(C)C ... 4.39
C[C@@H](Nc1c(Nc2ccnc(Nc3cccc4ccccc34)n2)c(=O)c1=O)C(C)(C)C ... 6.50
C[C@@H](Nc1c(Nc2ccnc(Nc3ccc4c(c3)Cc3ccccc3-4)n2)c(=O)c1=O)C(C)(C)C ... 7.39
